Conditions: buffer; pH 7.4; 200.0 µM

| Compound | solubility kinetic |
| --- | --- |
| CCN1CCN(c2ccc(S(=O)(=O)N3CCOCC3)cc2N)CC1 | > 53.2 µg/mL |
| CC(NC(=O)c1ccco1)c1ccc(-n2ccnc2)cc1 (centres undefined) | > 42.2 µg/mL |
| O=C(CSc1ccccc1)Nc1ccc2c(c1)OCCO2 | > 45.2 µg/mL |
| O=C(O)c1ccc(NC2CC(=O)N(Cc3ccccc3)C2=O)cc1 (centres undefined) | > 48.7 µg/mL |
| O=C(COC(=O)C1CC1)NC(=O)c1ccccc1 | > 37.1 µg/mL |
| COc1ccccc1NS(=O)(=O)c1cc(NC(=O)C2CCCO2)ccc1C (centres undefined) | > 58.6 µg/mL |
| COc1cccc(/C=N/NC(=O)CNC(=O)COc2ccccc2)c1O | > 53.6 µg/mL |
| S=c1[nH]ccn1-c1ccccc1Cl | > 31.6 µg/mL |
| CN1C(=O)C(O)(C2CCCCCC2=O)c2ccccc21 (centres undefined) | > 41 µg/mL |

* * *

Quick list: solubility kinetic per entry.
Details: buffer; pH 7.4; 200.0 µM
Measurement kind: solubility kinetic

| Molecule | Observed value |
| --- | --- |
| CC(=O)C(Cc1ccccc1)NC(=O)CN1CCc2ccccc2C1 (configuration not stated) | > 50.5 µg/mL |
| Cc1cc(NC(=O)C(C)SCC(=O)O)no1 (configuration not stated) | > 36.6 µg/mL |
| CN(CC(=O)NCCCn1ccnc1)S(=O)(=O)c1ccc(Cl)cc1 | > 55.6 µg/mL |
| CN(CC1COc2ccccc2O1)C(=O)Cn1cc(C(F)(F)F)ccc1=O (configuration not stated) | > 57.4 µg/mL |
| COc1cccc(C(=O)Nc2ccc3c(C)cc(=O)oc3c2)c1 | < 0.7 µg/mL |
| Cc1onc(NC(=O)CSCC(=O)O)c1Br | > 46.4 µg/mL |
| CC(=O)Nc1ccc2c(c1)nc(C)n2Cc1ccccc1 | > 41.9 µg/mL |
| COc1cc(C(N)=O)cc(Cl)c1OC | > 32.3 µg/mL |
| CN(C)C(=S)SCCn1c(N)nc(N(C)C)nc1=O | > 45.4 µg/mL |
| O=C(NCC(c1ccco1)N1CCOCC1)c1ccc(Cl)cc1 (configuration not stated) | > 50.2 µg/mL |
| CCC1CCC/C1=N\NC(=O)c1ccc(Cl)cc1 (configuration not stated) | > 39.7 µg/mL |
| O=C(CSc1nncc2ccccc12)Nc1cccc(C(=O)O)c1 | > 50.9 µg/mL |
| CC(=O)c1c(-c2ccc(C)cc2)nc2c3ccccc3ccn12 | < 0.3 µg/mL |
| COc1ccc(OC)c(N/C=C/C(=O)c2ccc(OC)c(OC)c2)c1 | < 0.7 µg/mL |
| Cc1cc(C)n(CC(=O)NCCC2=CCCCC2)n1 | > 39.2 µg/mL |
| Cn1c(SCC(=O)NC2CCCC2)nc2c(c1=O)SCC2 | > 48.8 µg/mL |
| Cl.O=C(NC1CCCCC1)N1CCNCC1 | > 37.2 µg/mL |

* * *

Details: buffer; pH 7.4; 200.0 µM

| Molecule | Unit annotation | Relation operator | solubility kinetic |
| --- | --- | --- | --- |
| NS(=O)(=O)c1cccc(NC(=O)COC(=O)CSCc2ccccc2)c1 | µg/mL | > | 59.2 |
| Cn1c(/C=C/c2cccc([N+](=O)[O-])c2)nc2ccccc2c1=O | µg/mL | < | 0.2 |
| CC(C)(C)c1ccc(NC(=O)c2c(F)cccc2Cl)cc1 | µg/mL | = | 1.1 |
| COc1ccc(OC)c(NC(=O)CCn2ccnc2)c1 | µg/mL | = | 38.9 |
| COc1ccc(Cl)cc1NC(=O)CCN1CCOCC1 | µg/mL | > | 44.8 |
| COc1ccc(CCNC(=O)C2CC(O)CN2S(=O)(=O)c2ccc(Cl)cc2)cc1OC (stereo not drawn) | µg/mL | > | 70.3 |
| Cc1nc(CSc2ccc(Cl)cc2)cs1 | µg/mL | = | 6.9 |
| O=C(Cc1ccc(F)cc1)NC(Cc1c[nH]c2ccccc12)C(=O)O (stereo not drawn) | µg/mL | = | 46.6 |

Where these numbers come from: PubChem BioAssay AID1996
